Origin of the recorded values: PubChem BioAssay AID504810

ASSAYED TARGET: Thyrotropin receptor (Homo sapiens) (UniProt P16473)
Sequence (P16473 whole entry, looked up): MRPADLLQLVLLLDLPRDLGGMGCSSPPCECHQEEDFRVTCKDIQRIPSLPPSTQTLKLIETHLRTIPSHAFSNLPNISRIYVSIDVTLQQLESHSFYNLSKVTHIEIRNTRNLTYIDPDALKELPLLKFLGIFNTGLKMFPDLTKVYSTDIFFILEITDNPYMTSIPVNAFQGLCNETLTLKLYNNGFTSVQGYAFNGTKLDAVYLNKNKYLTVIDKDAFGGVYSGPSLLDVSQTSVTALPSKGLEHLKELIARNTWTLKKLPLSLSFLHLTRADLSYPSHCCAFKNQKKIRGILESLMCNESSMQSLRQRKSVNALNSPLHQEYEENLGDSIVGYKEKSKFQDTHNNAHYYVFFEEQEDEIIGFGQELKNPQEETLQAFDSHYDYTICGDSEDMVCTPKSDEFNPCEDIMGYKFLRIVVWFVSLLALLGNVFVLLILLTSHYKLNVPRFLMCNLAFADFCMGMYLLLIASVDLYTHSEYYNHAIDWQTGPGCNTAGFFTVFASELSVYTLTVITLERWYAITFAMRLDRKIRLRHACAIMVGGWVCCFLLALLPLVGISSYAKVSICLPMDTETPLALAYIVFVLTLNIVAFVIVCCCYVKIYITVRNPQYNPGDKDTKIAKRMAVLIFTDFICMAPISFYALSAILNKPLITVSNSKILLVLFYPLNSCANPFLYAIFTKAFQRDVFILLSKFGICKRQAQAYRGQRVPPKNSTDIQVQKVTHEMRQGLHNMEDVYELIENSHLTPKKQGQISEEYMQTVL
METHOD NOTES: Antagonists of the Thyroid Stimulating Hormone Receptor: HTS campaign; also: % is scaled to controls: 0 for no effect and ±100 for the full control effect
STATED CONDITIONS: TSHR-expressing cells, TSH-stimulated cAMP HTRF, 2 h; at 11.5 µM; stronger effect = lower value
Screen size: about 330,000 compounds; about 670 (0.2%) were called active. Many of the other results were omitted from the sample, so actives are more common in it than they were.
MEASURED QUANTITY: activity change, negative = inhibition (%)
The answer is to be given in %; state only the numeric part.

In: Fill blank: measured activity change, negative = inhibition of the molecule CCOC(CNC(=O)C(=O)NCC(c1ccco1)N1CCN(c2ccc(OC)cc2)CC1)OCC (stereo unspecified) is ____.
Out: 0.959

In: Which activity change, negative = inhibition value belongs to "Oc1ccc(Cn2cc[nH]c2=S)cc1" ?
Out: 7.71

In: Reported activity change, negative = inhibition for "O=C(CO/N=C/c1ccc(OC(F)F)cc1)NCc1ccc(F)cc1" : what is it?
Out: -73.2

In: What value of activity change, negative = inhibition has been recorded for this entry: "CC1(C)O[C@@H]2[C@H](O1)[C@@H](CO)O[C@H]2n1c(N2CCCCC2)nc2c(N)ncnc21"
Out: -5.04

In: For CC1CCCCC1NC(=O)CO/N=C/c1ccc(OC(F)F)cc1 (stereo unspecified) , what is its reported activity change, negative = inhibition?
Out: -11.3

In: # lookup: activity change, negative = inhibition of "CCN(CC(=O)Nc1ccccc1C(F)(F)F)C(=O)CSCc1c(C)noc1C"
Out: 4.59

====

ASSAYED TARGET: Thyrotropin receptor (Homo sapiens) (UniProt P16473)
METHOD NOTES: Antagonists of the Thyroid Stimulating Hormone Receptor: HTS campaign; also: % is scaled to controls: 0 for no effect and ±100 for the full control effect
STATED CONDITIONS: TSHR-expressing cells, TSH-stimulated cAMP HTRF, 2 h; at 11.5 µM
Among all 330,000 compounds or so, about 670 (0.2%) were called active.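 The calls were made as follows: active = activity change below a set negative limit, meaning inhibition stronger than a set level (cut at about -70% in these data); inconclusive = activity change between two set negative limits; inactive = the rest.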 Only a selection was taken, and actives are over-represented in it overall.
Form entry, call: pick from t = active, f = inactive

In: Called result for "COc1cccc(CNC(=O)c2nnn(CC(=O)Nc3cc(C)ccc3C)c2N)c1"
Out: f

In: Lab log entry: "CC[C@]12c3[nH]c4ccc(Cl)cc4c3CCN1C(=O)[C@@H](CC(=O)NCCCOC)C[C@@H]2C(=O)N1CCN(C(=O)C2CC2)CC1" — outcome as called in the assay?
Out: f

In: Dear colleague, could you share the recorded outcome for "CC(C)(O)C#Cc1ccc(C(=O)N2CCC(C(N)=O)(N3CCCCC3)CC2)cc1" when you have a moment?
Out: f

In: Hey, what did the test say about COc1cccc(NC(=O)CC(c2ccc(OC(C)C)cc2)c2ccccc2OC)c1 (stereo unspecified) ?
Out: f

In: What did the test return for "Cc1cc(C)c2oc(C(=O)Nc3ccc(S(=O)(=O)Nc4nccc(C)n4)cc3)cc(=O)c2c1" ?
Out: t

In: Look up the recorded call for "NC(=O)C1(N2CCCCC2)CCN(C(=O)c2ccc(C#Cc3ccccc3)o2)CC1" in this test.
Out: t

In: Give the logged outcome of this assay for the following compound: Cc1cc(NC(=O)CN2C(=O)NC(C)(CCc3ccccc3)C2=O)no1 (stereo unspecified)
Out: f

In: Tell me the assay call for "[O-][n+]1onc2c1CCc1[nH]c(-c3ccccc3)nc1-2" please.
Out: f

In: What classification did "O=[N+]([O-])c1cc(Br)c(O)c(/C=N/Nc2nc3ccccc3s2)c1" end up with in this test?
Out: t

In: Short answer needed: outcome of this test for "Cc1ccnc(NS(=O)(=O)c2ccc(NC(=O)c3oc4ccccc4c3C)cc2)n1" ?
Out: f

In: Outcome logged for "COc1cc(/C=C(/NC(=O)c2ccc(Cl)cc2Cl)C(=O)O)cc(OC)c1OC" in this assay:
Out: f
